tested on: SNB-75 CNS; assay: NCI-60 one-dose screen, 48 h; settings: 10 µM unless noted
The panel holds about 83,000 compounds, 20% with a hit somewhere; the sample as a whole holds those more often. The source made the active and inactive calls. How the source made its calls: active means growth percent below 10; inactive means the rest.
Labels: active, inactive

- Compound: "CC(=O)N1N=C(c2ccc(C)cc2)CC1c1cn(-c2ccccc2)nc1-c1cccc(Nc2ccnc3cc(Cl)ccc23)c1 (stereo not given)"
  Answer Label: "inactive"
- Compound: "CC[C@H](Nc1nc(N)nc(C2CC2)c1C#N)c1nc2cccc(NCc3ccc(C(=O)NO)cc3)c2c(=O)n1-c1ccccc1"
  Answer Label: "active"
- Compound: "CCN(CC)CCCNc1cccc2c(C)cc(OC)nc12"
  Answer Label: "inactive"
- Compound: "CCOC(=O)c1ccc(NC(=O)NC2=NCCS2)cc1"
  Answer Label: "inactive"
- Compound: "COc1ccc(-c2nn(-c3cccc(Cl)c3)cc2/C=C2\\C(=N)N(c3ccccc3)N=C2N)cc1"
  Answer Label: "inactive"
- Compound: "CCCCOc1ncnc2nc[nH]c12"
  Answer Label: "inactive"
- Compound: "CCN(CC)CCCC(C)N/C(c1cccc(OC)c1)=c1\\c(=O)[nH]n(-c2c3ccccc3nc3ccccc23)c(=O)\\c1=C(/NC(C)CCCN(CC)CC)c1cccc(OC)c1 (stereo not given)"
  Answer Label: "active"
- Compound: "COc1ccc(/C=C/C(=O)c2ccc(NC(=O)CSc3nnc(-c4ccc(OC)cc4)n3-c3ccccc3)cc2)cc1"
  Answer Label: "inactive"
- Compound: "CC1=C(C(=O)Nc2ccc(F)cc2)C(c2ccc(C)cc2)C2=C(CC(C)(C)CC2=O)N1 (stereo not given)"
  Answer Label: "inactive"
- Compound: "COc1cc(C(=O)/C=C/c2cn(-c3ccccc3)nc2-c2cccc(Nc3ccnc4cc(Cl)ccc34)c2)cc(OC)c1OC"
  Answer Label: "inactive"
- Compound: "CN1CCN(Cc2ccc(NC(=O)c3cncc(C#Cc4ccc(N)nc4)c3)cc2C(F)(F)F)CC1"
  Answer Label: "active"
- Compound: "COc1cc(CN2CCO[C@H](COc3cccc(F)c3)C2)ccc1Cl"
  Answer Label: "inactive"
- Compound: "CC(=O)O[C@H]1[C@H](CC#CC#CC[C@@H]2C[C@]3(C)[C@H]4CC=C5[C@H]6[C@@H](C)[C@H](C)CC[C@]6(C(=O)NCCCCCCCCN)CC[C@@]5(C)[C@]4(C)CC[C@H]3C(C)(C)[C@H]2OC(C)=O)C[C@]2(C)[C@H]3CC=C4[C@H]5[C@@H](C)[C@H](C)CC[C@]5(C(=O)NCCCCCCCCN)CC[C@@]4(C)[C@]3(C)CC[C@H]2C1(C)C"
  Answer Label: "inactive"
- Compound: "CCCc1n(Cc2ccc3ccccc3n2)cc[n+]1Cc1ccc2ccccc2c1"
  Answer Label: "active"
- Compound: "ClCc1cccc(CSc2ncnc3c2ncn3Cc2cccc(CCl)c2)c1"
  Answer Label: "active"
- Compound: "CCc1ccc(-c2ccc(NC3CCCCCC3)nn2)cc1S(N)(=O)=O"
  Answer Label: "inactive"
- Compound: "O=C1OCC2=C1C(c1cccc(Br)c1)c1cc3c(cc1N2CCO)OCCO3 (stereo not given)"
  Answer Label: "inactive"
- Compound: "c1ccc(C(CC2=NCCCN2)c2ccccc2)cc1"
  Answer Label: "inactive"
- Compound: "CCN(CC)c1ccc2nc3c4ccccc4c(=O)cc-3n(-c3ccccc3)c2c1"
  Answer Label: "active"
- Compound: "NC(=O)Nc1ccc2ncnc(Nc3cccc(O)c3)c2c1"
  Answer Label: "inactive"

----------
The entries below come with measured growth values attached.
test system: HT29 colon; assay: NCI-60 one-dose screen, 48 h (100 = growth as untreated, 0 = no growth, -100 = all killed); conditions: 10 µM unless noted
The panel holds about 83,000 compounds, 20% with a hit somewhere; the sample as a whole holds those more often.

- Compound: "CN(C)c1ccc(/C=C(\\C#N)c2nc3ccccc3n2C)cc1"
  Unit Label: "%"
  growth: 13.7
- Compound: "CCCOC(=O)C1c2cc3c(cc2CC(C)C1C(=O)OCCC)OCO3 (stereo unspecified)"
  Unit Label: "%"
  growth: 72
- Compound: "CCCCCCCCCCCCCCCCCC1=NC(C)(C)CN1C(C)(C)CO"
  Unit Label: "%"
  growth: -100
- Compound: "Fc1cnccc1-c1nc2ccc3[nH]ncc3c2c2c1CCCC2"
  Unit Label: "%"
  growth: 25.4
- Compound: "O=c1[nH]cnc2nc[nH]c12"
  Unit Label: "%"
  growth: 97.9
- Compound: "COC1CC(N)C2OC(c3ccccc3)OCC2O1 (stereo unspecified)"
  Unit Label: "%"
  growth: 103

----------
system: MCF7 breast; assay: NCI-60 one-dose screen, 48 h (100 = growth as untreated, 0 = no growth, -100 = all killed); details: 10 µM unless noted
About 83,000 compounds went through this panel and 20% of them were active in at least one assay; those are over-represented in the sample as a whole. Active and inactive are the calls of the source. Rule for the calls: active = growth percent below 10; inactive = the rest.

- Compound: "CCN(C)CCCOc1ccc(/C(=C(\\C)Cc2cccc(OC)c2)c2ccc(OC(C)=O)cc2)cc1"
  Target Desc: "MCF7 breast"
  growth: "51.4% (inactive)"
- Compound: "CC(=O)N(C)c1ccc(Nc2cc(C)[nH]c3ccc4ncnc4c23)cc1"
  Target Desc: "MCF7 breast"
  growth: "28.3% (inactive)"
- Compound: "O=C(C=P(c1ccccc1)(c1ccccc1)c1ccccc1)CCl"
  Target Desc: "MCF7 breast"
  growth: "-16.6% (active)"
- Compound: "N#CC1=C(N)Oc2nc[nH]c(=O)c2C1c1cccs1 (stereo not given)"
  Target Desc: "MCF7 breast"
  growth: "97.1% (inactive)"
- Compound: "O=C(C(Br)C(Br)c1ccccc1)C(Br)C(Br)c1ccccc1 (stereo not given)"
  Target Desc: "MCF7 breast"
  growth: "-19.2% (active)"
- Compound: "Oc1[nH]c2ccc(Cl)cc2c1/C=c1/ccc2c(c1)N=C(c1ccc(F)cc1)N=2"
  Target Desc: "MCF7 breast"
  growth: "10.6% (inactive)"
- Compound: "COc1ccc(/C=c2\\c(=O)n(-c3ccccc3)c3nn4c(=O)c(=O)[nH]nc4n23)cc1"
  Target Desc: "MCF7 breast"
  growth: "102% (inactive)"
- Compound: "COc1ccc(NC(=O)C2c3ccccc3C(=O)N(CC(C)C)C2c2cccs2)cc1 (stereo not given)"
  Target Desc: "MCF7 breast"
  growth: "82.3% (inactive)"
- Compound: "CCc1ccc2c(c1)N(CCO)C1=C(C(=O)OC1)C2c1cccc(Cl)c1 (stereo not given)"
  Target Desc: "MCF7 breast"
  growth: "24.5% (inactive)"
- Compound: "COc1ccc(C2=NN(C=O)C(c3ccc(OS(=O)(=O)c4ccc(C)cc4)c(OC)c3)C2)cc1 (stereo not given)"
  Target Desc: "MCF7 breast"
  growth: "40.2% (inactive)"
- Compound: "COc1cccc(NC(=O)[C@H](C(C)C)n2c(=O)[nH]c3ccccc3c2=O)c1"
  Target Desc: "MCF7 breast"
  growth: "98.2% (inactive)"
- Compound: "CCCc1n(Cc2ccc3ccccc3n2)cc[n+]1Cc1ccc2ccccc2n1"
  Target Desc: "MCF7 breast"
  growth: "15.3% (inactive)"
- Compound: "COc1cc(/C=C/C(=O)c2c(C)nc3ccccc3c2C)ccc1OCCCOc1cc2c(cc1OC)C(=O)N1CCC[C@H]1C=N2"
  Target Desc: "MCF7 breast"
  growth: "-51.3% (active)"
- Compound: "COS(=O)(=O)CCN(CCOS(C)(=O)=O)S(C)(=O)=O"
  Target Desc: "MCF7 breast"
  growth: "96% (inactive)"
- Compound: "Fc1cnccc1-c1nc2ccc3[nH]ncc3c2c2c1CCCC2"
  Target Desc: "MCF7 breast"
  growth: "34.7% (inactive)"
- Compound: "CCCCn1c(C)nc2ccc(Nc3nc(Cl)nc4nc[nH]c34)cc21"
  Target Desc: "MCF7 breast"
  growth: "76.5% (inactive)"
- Compound: "CCN(CC)Cc1cc(Nc2ccnc3cc(Cl)ccc23)cc(-c2ccc(Cl)cc2)c1O"
  Target Desc: "MCF7 breast"
  growth: "14.8% (inactive)"
- Compound: "O=C1c2ccccc2C2N1CCC1CCc3ccccc3N12 (stereo not given)"
  Target Desc: "MCF7 breast"
  growth: "96.4% (inactive)"
- Compound: "CCCCc1n(Cc2ccc3ccccc3n2)cc[n+]1Cc1ccc2ccccc2n1"
  Target Desc: "MCF7 breast"
  growth: "7.29% (active)"
- Compound: "Cc1ccc(NC(=O)Cn2nncc2CN2C(=O)CSC2=O)cc1C"
  Target Desc: "MCF7 breast"
  growth: "92% (inactive)"
- Compound: "NS(=O)(=O)c1ccc(N2N=C(c3ccc(Br)cc3)CC2c2cn(-c3ccccc3)nc2-c2ccc(Cl)cc2)cc1 (stereo not given)"
  Target Desc: "MCF7 breast"
  growth: "53.1% (inactive)"
- Compound: "COc1cccc(Cn2c(-c3nonc3NC(C)=O)nc3ccccc32)c1"
  Target Desc: "MCF7 breast"
  growth: "47.4% (inactive)"
- Compound: "COc1ccccc1/C=N\\NC(=S)Nc1ccc(F)cc1"
  Target Desc: "MCF7 breast"
  growth: "60.5% (inactive)"
- Compound: "CNCc1ccccc1CN(CC(=O)Nc1ccc2c(c1)CC1(C2)C(=O)Nc2ncccc21)C(=O)C(C)(C)C (stereo not given)"
  Target Desc: "MCF7 breast"
  growth: "102% (inactive)"
- Compound: "COc1cc2c(cc1OC)C(=O)OC2"
  Target Desc: "MCF7 breast"
  growth: "105% (inactive)"
- Compound: "Fc1cc(-c2nnc3sc(-c4ccc(Cl)cc4)nn23)c(Cl)cc1Cl"
  Target Desc: "MCF7 breast"
  growth: "86.7% (inactive)"
- Compound: "CC(=O)N1N=C(c2ccc(C)cc2)CC1c1cn(-c2ccccc2)nc1-c1cccc(Nc2ccnc3cc(Cl)ccc23)c1 (stereo not given)"
  Target Desc: "MCF7 breast"
  growth: "24.8% (inactive)"
- Compound: "O=C1OCC2=C1C(c1cccc(Br)c1)c1cc3c(cc1N2CCO)OCCO3 (stereo not given)"
  Target Desc: "MCF7 breast"
  growth: "18.2% (inactive)"
- Compound: "C[C@@H]1C[C@H](N)C[C@H](c2ccncc2NC(=O)c2ccc(F)c(-c3c(F)cccc3F)n2)C1"
  Target Desc: "MCF7 breast"
  growth: "40.2% (inactive)"
- Compound: "COc1cc2c(cc1C)NC(=O)/C2=C\\c1c[nH]c2ccccc12"
  Target Desc: "MCF7 breast"
  growth: "59.2% (inactive)"
- Compound: "CCOc1c(C#N)c2c(N)ncnc2n1C1OC(CO)C(O)C1O (stereo not given)"
  Target Desc: "MCF7 breast"
  growth: "-3.56% (active)"
- Compound: "COc1ccc(-c2[nH]nc(N)c2-c2cc(OC)c(OC)c(OC)c2)cc1"
  Target Desc: "MCF7 breast"
  growth: "16.3% (inactive)"
- Compound: "CSC(=S)N/N=C(\\C)c1ccccn1"
  Target Desc: "MCF7 breast"
  growth: "7.66% (active)"
- Compound: "CC[C@H](Nc1nc(C)nc(N)c1C#N)c1nc2cccc(NCc3ccc(C(=O)NO)cc3)c2c(=O)n1-c1ccccc1"
  Target Desc: "MCF7 breast"
  growth: "5.42% (active)"
- Compound: "OC(c1cc(-c2ccc(C(F)(F)F)cc2)nc(-c2ccc(C(F)(F)F)cc2)c1)C1CCCCN1 (stereo not given)"
  Target Desc: "MCF7 breast"
  growth: "-80.8% (active)"
- Compound: "COC(=O)c1cc(Cl)cc([N+](=O)[O-])c1O"
  Target Desc: "MCF7 breast"
  growth: "113% (inactive)"
- Compound: "N#Cc1nc(-c2cccc(Br)c2)cc(-c2ccc(Nc3nc(N4CCCCC4)nc(N4CCCCC4)n3)cc2)c1N"
  Target Desc: "MCF7 breast"
  growth: "6.98% (active)"
- Compound: "CCSc1ccc([C@@H]2[C@@H](O)C(=O)N2c2cc(OC)c(OC)c(OC)c2)cc1"
  Target Desc: "MCF7 breast"
  growth: "20.1% (inactive)"
- Compound: "COc1ccc(C(=O)/C=C/c2cn(-c3ccccc3)nc2-c2cccc(Nc3ccnc4cc(Cl)ccc34)c2)cc1"
  Target Desc: "MCF7 breast"
  growth: "85.8% (inactive)"
- Compound: "C=CCn1c(SCC(=O)Nc2ccc(C(=O)/C=C/c3ccccc3)cc2)nnc1-c1ccc(OC)c(OC)c1"
  Target Desc: "MCF7 breast"
  growth: "16.5% (inactive)"
